- Assay explanation: Solubility in water
- Assay type: physicochemical
Measurement name: solubility

Prompt line: Entry `Cc1cc(-c2ccc(/N=N/c3c(S(=O)(=O)O)cc4cc(S(=O)(=O)O)cc(N)c4c3O)c(C)c2)ccc1/N=N/c1c(S(=O)(=O)O)cc2cc(S(=O)(=O)O)cc(N)c2c1O` has what solubility?
Response line: < 100 µg/mL
